The origin of these recorded values is paper PMC12631831.

test system: HEK293T cells; test: Cytotoxicity assay (CellTiter-Glo); format: cell-based, human; conditions: 72 h, 1-128 µM, triplicate
Ends that are not written are not given here.
For each record, write down the corresponding CC50 (concentration that reduces viability by 50%).
One number for each entry, in µM.

WKKWRWWWRWKKLWW [A10]; 51.11
KWWKRRRWRWRWKKLWK [A04]; 49.63
WRWKGRWRRKLKKLRWKLKKKLKLG [A03]; 21.67

Field: CC50 (concentration that reduces viability by 50%). Fill in for each record below.
1. VKKRLLFRKPLLKLFLLFGRRLKA [S07]
2. RWWRGWWRRKLKKLRKKLKKKLKGM [A01]
3. RGWFKVKRRYIKRFMRGLRGFHIKAA [R04]
4. RWRKWRRWWWRKKKLGF [A06]

Result:
1. 22.12
2. 11.62
3. 23.59
4. 71.09

###

tested on: rat erythrocytes; test: Hemolysis assay; settings: rat RBC 10% in PBS, 37 °C, 1 min, 1-128 µM, absorbance 450 nm, triplicate, fitted with GraphPad Prism 8
Ends that are not written are not given here.
Give measured HC25 (concentration that causes 25% hemolysis) for each item. Keep answers brief.

Some solved cases for reference:
WKKWRWWWRWKKLWW [A10]; 30.13 µM
KWWKRRRWRWRWKKLWK [A04]; > 128 µM
WRWKGRWRRKLKKLRWKLKKKLKLG [A03]; > 128 µM
RWWRGWWRRKLKKLRKKLKKKLKGM [A01]; 14.66 µM
RWRKWRRWWWRKKKLGF [A06]; > 128 µM
VKKRLLFRKPLLKLFLLFGRRLKA [S07]; > 128 µM

Batch request: HC25 (concentration that causes 25% hemolysis) per item, same order as input.
1. RRLRRLRILLFLKRVLRR [S02]
2. WVQKKVIKLILKGLFALKLLG [S03]
3. KQQRKRGRVRKALLGKVIGFGGLKLKG [S08]

Result:
["> 128 µM", "> 128 µM", "> 128 µM"]

###

system: B.subtilis ATCC6633; details: ATCC6633, 18 h
Ends that are not written are not given here.
For each entry below, report its MIC B.subtilis ATCC6633 value.
Answers are plain numbers, in µM.

Look at each sequence and report its MIC B.subtilis ATCC6633.
1. GIKKWIKGAIKKLIKKVAKWIWKQ [A07]
2. DGWTMVKARYIKRFMRGLRGFHIKAA [2-1]

Result:
1. 0.5
2. 8

Batch: MIC B.subtilis ATCC6633 for all items listed.
1. KWFFKWFRKHFLKWMRQYFHK [R02]
2. IFHHIFRGIHHIFKGIHRLWKR [A02]
3. RGWTMVKARYIKRFMRGLRGFHIKAA [2-2]
4. RGWFKVKRRYIKRFMRGLRGFHIKAA [R04]
5. GILFLKRLRILGIGKLLLLKR [S05]
6. RKRVVWGKIFFRRR [S04]
7. YWRRWYIWRWRRWRWLRYI [R03]

Result:
[4, 4, 2, 1, 64, 64, 128]

Batch: MIC B.subtilis ATCC6633 for all items listed.
1. KKQVKWLLKVWKKVGIKLGAKLPVWK [S01]
2. FFHHIFRKIHHVFKKIHRLFHH [A09]

Result:
[2, 4]

###

I'd appreciate it if you could supply CC50 (concentration that reduces viability by 50%) values for the items below.
test system: HEK293T cells; experiment: Cytotoxicity assay (CellTiter-Glo); type: cell-based, human; conditions: 72 h, 1-128 µM, triplicate
Ends that are not written are not given here.

RRLRRLRILLFLKRVLRR [S02]; > 128 µM
WVQKKVIKLILKGLFALKLLG [S03]; > 64 µM

Then there is this sequence:
Q: Identify the measured CC50 (concentration that reduces viability by 50%) of KQQRKRGRVRKALLGKVIGFGGLKLKG [S08] for HEK293T cells.
Result: > 128 µM

###

For each of the sequences below, state its MIC B.subtilis ATCC6633.
test system: B.subtilis ATCC6633; details: ATCC6633, 18 h
Ends that are not written are not given here.

Observe how each entry below is paired with its result.
LWRWKLLGRISVIIGKIKAALRLWF [R06]; > 128 µM
WIPKRFGIVIKRFYYRPFYPLFQ [R07]; > 128 µM
WVQKKVIKLILKGLFALKLLG [S03]; > 128 µM
IKRRIRRRPIRRRQRR [S06]; > 128 µM
WWWHLRIWLKKKHQKAQWKKFGWFMKQHH [R05]; 8 µM
RGWFKVKMRYIKRFMRGLRGFHIKAA [2-6]; 2 µM

For each of the sequences below, state MIC B.subtilis ATCC6633.
1. KLKIKFKFHLKLFGLF [S09]
2. KLYKYKYRKVYKKQRRR [R09]
3. YKGFWRKIIYLIMMHAMKFMVWFLHLPKQ [R08]
4. GRKKRRRRRRGGWWWKLGLRWF [A08]
5. RLKIHLYIKHYRRPKIVIRLKIK [R01]

Result:
1: > 128 µM; 2: > 128 µM; 3: > 128 µM; 4: 64 µM; 5: > 128 µM

// each sequence listed below needs its MIC B.subtilis ATCC6633
1. GIKKWIKGWAKKLIKKVAKKIAKQ [A05]
2. QPKKPYKPIYKKVRGVLIPFKRV [R10]

Result:
0.25 µM
> 128 µM
